Tested on: A549-ACTB-RAB5A
METHOD: phenotypically active (imaging signature differs from DMSO and reproducible) at any of 0.3-9 uM (binary (1 = active, 0 = inactive)); higher = active
RUN CONDITIONS: treatment time: 24 h
Labels: yes (1) = active, no (0) = inactive

COMPOUND	TEST SYSTEM	ASSIGNED CATEGORY
Nc1c2c(nc3ccccc13)CCCC2	A549-ACTB-RAB5A	no (0)
CCCCc1oc2ccc(NS(C)(=O)=O)cc2c1C(=O)c1ccc(OCCCN(CCCC)CCCC)cc1	A549-ACTB-RAB5A	yes (1)
O=S(=O)(NCCCCCCc1ccccc1)c1cccc2c(Cl)cccc12	A549-ACTB-RAB5A	no (0)
O=C(Nc1cccc(Br)c1)c1cccc(S(=O)(=O)N2CCCCCC2)c1	A549-ACTB-RAB5A	no (0)
COCCCC/C(=N/OCCN)c1ccc(C(F)(F)F)cc1	A549-ACTB-RAB5A	yes (1)
N[C@@H](C(=O)O)c1ccc(C(=O)O)c(C(=O)O)c1	A549-ACTB-RAB5A	no (0)
COc1ccc(N2C(=O)CSC2c2cccc(Br)c2)c(OC)c1 (centres undefined)	A549-ACTB-RAB5A	yes (1)
COc1ccc(OC)c(C(O)CNC(=O)CN)c1 (centres undefined)	A549-ACTB-RAB5A	no (0)
CC(C)n1c(/C=C/[C@@H](O)C[C@@H](O)CC(=O)O)c(-c2ccc(F)cc2)c2ccccc21.CC(C)n1c(/C=C/[C@H](O)C[C@H](O)CC(=O)O)c(-c2ccc(F)cc2)c2ccccc21 [Fluvastatin sodium]	A549-ACTB-RAB5A	yes (1)

* * *

System: A549-GM130-SQSTM1
METHOD: phenotypically active (imaging signature differs from DMSO and reproducible) at any of 0.3-9 uM (binary (1 = active, 0 = inactive)); higher = active
RUN CONDITIONS: treatment time: 24 h
Where a name gives a salt, the structure may show the parent alone.
Labels: true (active), false (inactive)

COMPOUND	ASSIGNED CATEGORY
CC1(C)CCC(c2ccc(Cl)cc2)=C(CN2CCN(c3ccc(C(=O)NS(=O)(=O)c4ccc(N[C@H](CCN5CCOCC5)CSc5ccccc5)c(S(=O)(=O)C(F)(F)F)c4)cc3)CC2)C1 [navitoclax]	false
c1ccc(CC2=NCCN2)cc1 [tolazoline]	false
C[C@H](NCCc1ccc(O)cc1)[C@H](O)c1ccc(O)cc1 [ritodrine]	false
O=C1NN(c2ccc(F)c(Cl)c2)C(=O)/C1=C\c1ccc([N+](=O)[O-])o1	true
CC(=O)C1=C(O)[C@]2(C)C(=CC1=O)Oc1c(C(C)=O)c(O)c(C)c(O)c12 [(+)-Usnic acid]	true
Clc1ccc(N/N=C(\c2ccccc2)c2ccccn2)nc1	true
N#C/C(=C/c1ccc(O)c(O)c1)C(=O)NCCCCc1ccccc1	true
O=C1NC(=O)C(c2ccccc2)(c2ccccc2)N1 [phenytoin]	false
CC(C[N+](C)(C)C)OC(N)=O (stereo not drawn) [bethanechol]	false
O=C(O)/C(Cc1ccccc1[N+](=O)[O-])=N\Nc1nc(-c2ccc(Cl)c(Cl)c2)cs1	false
C[C@@H]1CCN(C(=O)CC#N)C[C@@H]1N(C)c1ncnc2[nH]ccc12	false
CC(=O)O[C@H]1C[C@@H]2CC[C@@H]3[C@H](CC[C@@]4(C)[C@H]3C[C@H]([N+]3(C)CCCCC3)[C@@H]4OC(C)=O)[C@@]2(C)C[C@@H]1N1CCCCC1 [vecuronium]	false
CCCN(CCC)CCc1cccc2c1CC(=O)N2 [ropinirole]	false
CC(C)(C)NS(=O)(=O)c1cncc(-c2cc(F)c3nc(N)nn3c2)c1	false
O=C(O/N=C1\c2ccccc2-c2nc3ccccc3nc21)c1ccco1	false
CCOC(=O)C1=C(C)NC(=S)N[C@H]1c1cccc(O)c1 [Monastrol]	false
Nc1ncnc2c1cnn2-c1ccccc1	false
COc1cc2nc(N3CCN(C(=O)c4ccco4)CC3)nc(N)c2cc1OC [prazosin]	false
Cc1c(O)cccc1C(=O)N[C@@H](CSc1ccccc1)[C@H](O)CN1C[C@H]2CCCC[C@H]2C[C@H]1C(=O)NC(C)(C)C [nelfinavir]	true
N#CC[C@@H](C1CCCC1)n1cc(-c2ncnc3[nH]ccc23)cn1 [ruxolitinib-(S)]	true
c1ccc(-c2cnn3cc(-c4ccc(OCCN5CCOCC5)cc4)cnc23)cc1	false
CCN(CC)c1ccc(/C=N/NC(=O)c2ccncc2)c(O)c1	true
CC/C(=C(/c1ccccc1)c1ccc(OCCN(C)C)cc1)c1ccccc1 [tamoxifen]	true
Nc1nnc(Sc2ncc([N+](=O)[O-])s2)s1	false
CCCOc1ccc(CCc2nc3cc(-c4c(C)noc4C)ccc3n2CCN2CCOCC2)cc1	false
CCCCCCCCCCCCCCCCCCc1ccc(C(=O)/C=C/C(=O)O)cc1	false
O=C(COc1cccc2c(=O)[nH]ccc12)c1ccccc1	true
CCCCNNC(=O)c1ccc(Br)cc1	true
COc1ccc(-c2cc3c(C)nc(N)nc3n([C@H]3CC[C@H](OCCO)CC3)c2=O)cn1	true
CC(C(=O)O)c1cccc(C(=O)c2ccccc2)c1 (stereo not drawn) [ketoprofen]	false
COC(=O)C(Cc1ccc(OCCn2c(=O)sc3cc(C(=O)c4ccccc4)ccc32)cc1)C(=O)OC	false
CC(C)(C)c1ccc2cc(C#N)c(C#N)cc2c1	true
CN(C)C(=N)NC(=N)N [Metformin hydrochloride]	false
COc1ccc(C(=O)Nc2sc3c(c2C(N)=O)CCCC3)cc1OC	false
COc1ccc(C[C@H](N)C(=O)N[C@H]2[C@@H](O)[C@H](n3cnc4c(N(C)C)ncnc43)O[C@@H]2CO)cc1 [Puromycin dihydrochloride]	true
CCCc1nc(C(C)(C)O)c(C(=O)OCc2oc(=O)oc2C)n1Cc1ccc(-c2ccccc2-c2nnn[nH]2)cc1 [olmesartan-medoxomil]	false
Nc1ncnc2c1ncn2[C@@H]1O[C@H](CO)[C@@H](O)[C@H]1O [Adenosine]	false
Cc1ccc(OCCSc2ncccn2)c(Br)c1 [ZLN 024 hydrochloride]	false

* * *

Overview of recorded phenotypically active for various compounds
System: WPMY1-CANX-COX4
METHOD: phenotypically active (imaging signature differs from DMSO and reproducible) at any of 0.3-9 uM (binary (1 = active, 0 = inactive)); higher = active
RUN CONDITIONS: treatment time: 24 h
Structures can show the parent of a compound that is named as a salt.
PROPERTY LABEL: phenotypically active

COMPOUND	PROPERTY LABEL	OBSERVED MEASUREMENT
Cc1cc(C)cc(C(=O)NOCCCCCC(=O)NO)c1	phenotypically active	1 (active)
Cc1cc(Nc2cc(N3CCN(C)CC3)nc(Sc3ccc(NC(=O)C4CC4)cc3)n2)[nH]n1	phenotypically active	1 (active)
COc1ccc2c(c1OC)C(=O)O[C@@H]2[C@H]1c2c(cc3c(c2OC)OCO3)CCN1C [Noscapine hydrochloride]	phenotypically active	0 (inactive)
COC(=O)C1=CO[C@@H](C)[C@H]2CN3CCc4c([nH]c5ccccc45)[C@@H]3C[C@H]12 [Ajmalicine hydrochloride]	phenotypically active	1 (active)

* * *

Test system: WPMY1-GM130-SQSTM1
METHOD: phenotypically active (imaging signature differs from DMSO and reproducible) at any of 0.3-9 uM (binary (1 = active, 0 = inactive)); higher = active
RUN CONDITIONS: treatment time: 24 h
Structures can show the parent of a compound that is named as a salt.
Labels: active, inactive

COMPOUND	TEST SYSTEM	ASSIGNED CATEGORY
O=C(Nc1cccc(Br)c1)c1cccc(S(=O)(=O)N2CCCCCC2)c1	WPMY1-GM130-SQSTM1	inactive
COc1ccc([C@@H]2Sc3ccccc3N(CCN(C)C)C(=O)[C@@H]2OC(C)=O)cc1 [diltiazem]	WPMY1-GM130-SQSTM1	inactive
Cn1c(=O)c2[nH]cnc2n(C)c1=O [Aminophylline]	WPMY1-GM130-SQSTM1	inactive
CC(=O)c1c(C)c2cnc(Nc3ccc(N4CCNCC4)cn3)nc2n(C2CCCC2)c1=O	WPMY1-GM130-SQSTM1	active
COc1ccc(-c2ccc3ncc4c(c3c2)n(-c2ccc(N3CCNCC3)c(C(F)(F)F)c2)c(=O)n4C)cn1	WPMY1-GM130-SQSTM1	active
O=C1NCCN1CCN1CCC(c2cn(-c3ccc(F)cc3)c3ccc(Cl)cc23)CC1 [sertindole]	WPMY1-GM130-SQSTM1	active
COc1ccc(CCc2nc3c(C)c(-c4c(C)noc4C)c(C)cc3n2CCN2CCOCC2)cc1	WPMY1-GM130-SQSTM1	inactive
CC1=CC(=O)CC(C)(C)C1(O)/C=C/C(C)=C\C(=O)O (mixture of isomers) [(+/-)-2-cis-4-trans-Abscisic acid]	WPMY1-GM130-SQSTM1	inactive
COc1ccc2c3c(c(=O)n(C)c2c1OC)C=CC(C)(C)O3 [Veprisine]	WPMY1-GM130-SQSTM1	active
N#Cc1ccc(C(c2ccc(C#N)cc2)n2cncn2)cc1 [Letrozole]	WPMY1-GM130-SQSTM1	inactive
C[C@H](NC(=O)c1sccc1OCc1ccc(Cl)cc1)c1ccccc1	WPMY1-GM130-SQSTM1	active
c1ccc(CN(CC2=NCCN2)c2ccccc2)cc1 [antazoline]	WPMY1-GM130-SQSTM1	inactive
CCCCN1C[C@H](O)[C@@H](O)[C@H](O)[C@H]1CO [Miglustat hydrochloride]	WPMY1-GM130-SQSTM1	inactive
CCSc1ccc2c(c1)N(CCCN1CCN(C)CC1)c1ccccc1S2 [thiethylperazine]	WPMY1-GM130-SQSTM1	active
Cc1cc2cc(NS(=O)(=O)c3ccc(C#N)cc3)ccc2n(C)c1=O	WPMY1-GM130-SQSTM1	inactive
CC1Cc2ccccc2N1NC(=O)c1ccc(Cl)c(S(N)(=O)=O)c1 (stereo not drawn) [indapamide]	WPMY1-GM130-SQSTM1	inactive
C[C@]12CC[C@@H]3c4ccc(OS(=O)(=O)O)cc4CC[C@H]3[C@@H]1CCC2=O [estrone sulfuric acid]	WPMY1-GM130-SQSTM1	inactive
CC[C@]12CCCN3CCc4c(n(c5ccccc45)[C@@](O)(C(=O)OC)C1)[C@@H]32 [Vincamine]	WPMY1-GM130-SQSTM1	inactive
